# Tested on: P. aeruginosa
# Experiment summary: MIC against P. aeruginosa
# Assay type: cell-based, Pseudomonas aeruginosa
Where no end group is shown, it is not given here.
Observed property: MIC P. aeruginosa

Please indicate MIC P. aeruginosa recorded for LKQLKAGIY-NH2 [Peptide S6L1-3, LKQLKAGIY*] 250 µg/mL

Determine its reported MIC P. aeruginosa: LHIHAHFHVHIHLHF [Peptide S3L8-8, LHIHAHFHVHIHLHF] >125 µg/mL

Hello, please tell me recorded MIC P. aeruginosa for this one: FIRKFLFKHLF [Peptide S3L8-26, FIRKFLFKHLF] >125 µg/mL

Assign MIC P. aeruginosa to the following record: LRLFLRWLF [Peptide S3L8-39, LRLFLRWLF] >125 µg/mL

Look up MIC P. aeruginosa of FKHKFKHKFIF [Peptide S3L8-30, FKHKFKHKFIF] and report it. >125 µg/mL

Respond only with MIC P. aeruginosa recorded for FKFKHKLIF [Peptide S3L8-36, FKFKHKLIF] >125 µg/mL

Return MIC P. aeruginosa (reported value) for this substance: FLHKHVLRHRIVF [Peptide S3L8-14, FLHKHVLRHRIVF] >125 µg/mL

Name the recorded MIC P. aeruginosa of the substance listed here: FLFKHLFLHRIFF [Peptide S3L8-16, FLFKHLFLHRIFF] >125 µg/mL

Supply MIC P. aeruginosa value. Item: FVFRHKWVWKHRFLF [Peptide S3L8-1, FVFRHKWVWKHRFLF] >125 µg/mL

Report MIC P. aeruginosa for LKAKIKFKVKLKIKF [Peptide S3L8-11, LKAKIKFKVKLKIKF] 32 to 62.5 µg/mL

Output measured MIC P. aeruginosa for this item: FKFLFKFLF [Peptide S3L8-38, FKFLFKFLF] >125 µg/mL

Specify reported MIC P. aeruginosa for the substance shown: VLIRILVRVIF [Peptide S3L8-33, VLIRILVRVIF] >125 µg/mL

Indicate the recorded MIC P. aeruginosa value for this substance: VFKRVLIHKLIF [Peptide S3L8-23, VFKRVLIHKLIF] >125 µg/mL
